Biological target: his-galectin-3 (Homo sapiens, UniProt P17931)
Construct: purchased Abcam
Sequence (P17931 whole entry): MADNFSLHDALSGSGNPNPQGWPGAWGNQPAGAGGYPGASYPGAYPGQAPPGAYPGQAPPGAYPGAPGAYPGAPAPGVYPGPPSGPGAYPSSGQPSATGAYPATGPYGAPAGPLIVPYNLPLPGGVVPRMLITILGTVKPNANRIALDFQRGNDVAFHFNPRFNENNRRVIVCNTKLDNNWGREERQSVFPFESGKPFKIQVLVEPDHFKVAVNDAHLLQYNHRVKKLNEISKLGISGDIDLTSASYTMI
Test: TR-FRET assay (in vitro galectin-3 binding inhibitory activity test)
Settings: Table 1; compound at 20 μM; 60 nM his-galectin-3, 15 nM biotin-ASF; read-out: % Inhibitory activity (at 20 μM)
Readout Name: inhibition at 20 µM

Compound | Readout Name | Measurement
O=C(Cc1cccc(Br)c1)N[C@@H]1CCO[C@]12O[C@H](CO)[C@H](O)[C@H](n1cc(-c3cc(F)c(F)c(F)c3)nn1)[C@H]2O [Compound A151] | inhibition at 20 µM | > 75%
CC(=O)N[C@H]1C(O)O[C@H](CO)[C@@H](O[C@@H]2O[C@H](CO)[C@H](O)[C@H](O)[C@H]2O)[C@@H]1O (stereo partly drawn) [LacNAc, N-acetyl-D-lactosamine, reference compound] | inhibition at 20 µM | < 25%
OC[C@H]1O[C@@]2(CCCO2)[C@H](OCc2ccc(C(F)(F)F)o2)[C@@H](n2cc(-c3cc(F)c(F)c(F)c3)nn2)[C@H]1O [Compound A19] | inhibition at 20 µM | 25 to 50%
OC[C@H]1O[C@@]2(CCCO2)[C@H](OCc2ccccc2)[C@@H](n2cc(-c3cc(F)c(F)c(F)c3)nn2)[C@H]1O [Compound A13] | inhibition at 20 µM | 25 to 50%
O=C(O[C@@H]1[C@@H](n2cc(-c3cc(F)c(F)c(F)c3)nn2)[C@@H](O)[C@@H](CO)O[C@@]12CCCCO2)c1cccc(C(F)(F)F)c1 [Compound A52] | inhibition at 20 µM | < 25%

Problem: Which inhibition at 20 µM value belongs to O=c1oc2ccc(F)c(F)c2cc1CO[C@H]1[C@@H](O)[C@@H](CO)O[C@@]2(CCCO2)[C@@H]1O [Compound A09] ?
Result: < 25%

Problem: Which inhibition at 20 µM value belongs to O=C(N[C@@H]1CCO[C@]12O[C@H](CO)[C@H](O)[C@H](n1cc(-c3cc(F)c(F)c(F)c3)nn1)[C@H]2O)c1cc2ccccc2s1 [Compound A124] ?
Result: 50 to 75%

Problem: Which inhibition at 20 µM value belongs to O=C(Cc1ccc(-c2ccccc2)cc1)N[C@@H]1CCO[C@]12O[C@H](CO)[C@H](O)[C@H](n1cc(-c3cc(F)c(F)c(F)c3)nn1)[C@H]2O [Compound A135] ?
Result: < 25%

Problem: Which inhibition at 20 µM value belongs to OC[C@H]1O[C@@]2(CCCO2)[C@H](OCc2cccc(F)c2)[C@@H](n2cc(-c3cc(F)c(F)c(F)c3)nn2)[C@H]1O [Compound A91] ?
Result: < 25%

###

Molecular target: his-galectin-3 (Homo sapiens, UniProt P17931)
Construct: purchased Abcam
Test: TR-FRET assay (in vitro galectin-3 binding inhibitory activity test)
Conditions: Table 2; compound at 20 μM; 60 nM his-galectin-3, 15 nM biotin-ASF; read-out: % Inhibitory activity (at 20 μM)
Readings of inhibition at 20 µM for the listed molecules

Molecule | Measurement
O=C(N[C@@H]1CCO[C@]12O[C@H](CO)[C@H](O)[C@H](n1cc(-c3cc(F)c(F)c(F)c3)nn1)[C@H]2O)c1cc2ccccc2cc1Cl [Compound A201] | > 75%

Problem: Which inhibition at 20 µM value belongs to O=C(N[C@@H]1CCO[C@]12O[C@H](CO)[C@H](O)[C@H](n1cc(-c3cc(F)c(F)c(F)c3)nn1)[C@H]2O)c1cccc(-c2ccccc2F)c1 [Compound A164] ?
Result: > 75%

Problem: Which inhibition at 20 µM value belongs to O=C(N[C@@H]1CCO[C@]12O[C@H](CO)[C@H](O)[C@H](n1cc(-c3cc(F)c(F)c(F)c3)nn1)[C@H]2O)c1ccc(F)c2ccccc12 [Compound A170] ?
Result: > 75%

Problem: Which inhibition at 20 µM value belongs to O=C(N[C@@H]1CCO[C@]12O[C@H](CO)[C@H](O)[C@H](n1cc(-c3cc(F)c(F)c(F)c3)nn1)[C@H]2O)c1cc(Br)cc2ccccc12 [Compound A178] ?
Result: > 75%

Problem: Which inhibition at 20 µM value belongs to O=C(N[C@@H]1CCO[C@]12O[C@H](CO)[C@H](O)[C@H](n1cc(-c3cc(F)c(F)c(F)c3)nn1)[C@H]2O)c1csc2cccc(Br)c12 [Compound A248] ?
Result: < 25%

Problem: Which inhibition at 20 µM value belongs to O=C(N[C@@H]1CCO[C@]12O[C@H](CO)[C@H](O)[C@H](n1cc(-c3cc(F)c(F)c(F)c3)nn1)[C@H]2O)C1CCc2ccccc21 (some centres unmarked) [Compound A163] ?
Result: 50 to 75%

Problem: Which inhibition at 20 µM value belongs to COc1cc(C(=O)N[C@@H]2CCO[C@]23O[C@H](CO)[C@H](O)[C@H](n2cc(-c4cc(F)c(F)c(F)c4)nn2)[C@H]3O)c2ccccc2c1 [Compound A241] ?
Result: > 75%

Problem: Which inhibition at 20 µM value belongs to Cc1oc2ccccc2c1C(=O)N[C@@H]1CCO[C@]12O[C@H](CO)[C@H](O)[C@H](n1cc(-c3cc(F)c(F)c(F)c3)nn1)[C@H]2O [Compound A218] ?
Result: > 75%

Problem: Which inhibition at 20 µM value belongs to Cc1cc(C(=O)N[C@@H]2CCO[C@]23O[C@H](CO)[C@H](O)[C@H](n2cc(-c4cc(F)c(F)c(F)c4)nn2)[C@H]3O)c2cccnc2c1 [Compound A245] ?
Result: > 75%

Problem: Which inhibition at 20 µM value belongs to O=C(N[C@@H]1CCO[C@]12O[C@H](CO)[C@H](O)[C@H](n1cc(-c3cc(F)c(F)c(F)c3)nn1)[C@H]2O)c1cccc(-c2cccc(Cl)c2)c1 [Compound A166] ?
Result: 50 to 75%

Problem: Which inhibition at 20 µM value belongs to O=C(N[C@@H]1CCO[C@]12O[C@H](CO)[C@H](O)[C@H](n1cc(-c3cc(F)c(F)c(F)c3)nn1)[C@H]2O)c1cccc2ncccc12 [Compound A212] ?
Result: > 75%
